tested on: Mus musculus; assay: Anticonvulsant activity in ip dosed Mus musculus Swiss albino (mouse) assessed as protection against strychnine-induced seizure at 0.5 hr; format: functional; conditions: read-out: MED
Readout type: minimal effective dose (mg/kg)
Numbers only, in mg/kg.

A selection of reference data follows.
[[record]]
smi = "COc1ccc(/C=N/Cc2cccnc2)cc1O"
target_of_assay = "Mus musculus"
readout_type = "minimal effective dose"
value = 100

[[record]]
smi = "COc1cc(/C=N/Cc2cccnc2)cc(OC)c1OC"
target_of_assay = "Mus musculus"
readout_type = "minimal effective dose"
value = 100


Turning now to a further compound:
Asked: Could you tell me which minimal effective dose is on file for `C(=N\Cc1cccnc1)/c1ccccc1` ?
Given back: 100
